molecular target: PRMT5/MEP50 complex (Homo sapiens (Human), UniProt O14744); assay: PRMT5:MEP50 HotSpot Assay (full-length histone H2A, plus and minus MTA); format: biochemical; conditions: in the absence of MTA; read-out: IC50
Sequence (O14744 whole entry): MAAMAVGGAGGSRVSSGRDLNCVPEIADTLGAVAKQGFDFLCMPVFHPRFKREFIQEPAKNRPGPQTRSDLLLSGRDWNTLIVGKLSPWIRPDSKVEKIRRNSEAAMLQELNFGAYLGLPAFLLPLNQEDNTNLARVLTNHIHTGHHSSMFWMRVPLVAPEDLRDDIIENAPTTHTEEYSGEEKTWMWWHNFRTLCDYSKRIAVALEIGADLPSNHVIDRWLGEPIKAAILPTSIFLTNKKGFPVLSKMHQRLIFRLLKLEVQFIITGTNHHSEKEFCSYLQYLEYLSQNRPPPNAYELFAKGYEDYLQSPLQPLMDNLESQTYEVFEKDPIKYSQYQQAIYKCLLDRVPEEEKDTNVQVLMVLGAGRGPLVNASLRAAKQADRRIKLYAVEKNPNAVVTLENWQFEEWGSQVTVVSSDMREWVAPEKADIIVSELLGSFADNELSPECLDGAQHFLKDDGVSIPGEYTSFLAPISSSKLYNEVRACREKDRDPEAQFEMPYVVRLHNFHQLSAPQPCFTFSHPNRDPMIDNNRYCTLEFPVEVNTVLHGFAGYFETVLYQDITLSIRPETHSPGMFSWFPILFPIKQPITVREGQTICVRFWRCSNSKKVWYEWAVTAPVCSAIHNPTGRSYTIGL
Sequence (Q9BQA1 whole entry partner): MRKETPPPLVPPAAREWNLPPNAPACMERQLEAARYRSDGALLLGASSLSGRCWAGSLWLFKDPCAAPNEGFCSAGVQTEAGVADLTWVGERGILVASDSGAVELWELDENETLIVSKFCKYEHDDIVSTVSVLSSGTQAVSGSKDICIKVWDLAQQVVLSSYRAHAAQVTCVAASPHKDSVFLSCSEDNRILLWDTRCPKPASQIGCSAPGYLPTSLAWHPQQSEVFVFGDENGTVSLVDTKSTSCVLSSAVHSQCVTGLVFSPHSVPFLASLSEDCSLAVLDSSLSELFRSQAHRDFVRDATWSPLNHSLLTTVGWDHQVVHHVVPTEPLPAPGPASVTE
parameter.measured: IC50

Enter measured IC50, system PRMT5/MEP50 complex (Homo sapiens (Human), UniProt O14744), for the molecule shown: Cn1ncc(-c2ccc3c(=O)[nH]nc(CN)c3c2)c1-c1ccccc1C#N [Example 4-100] > 10 µM

###

molecular target: PRMT5/MEP50 complex (Homo sapiens (Human), UniProt O14744); experiment: PRMT5:MEP50 FlashPlate Assay (histone H4 peptide, plus and minus MTA); assay type: biochemical; conditions: in the absence of MTA, read-out: IC50
parameter.measured: IC50 (µM)
Field format: number, assumed µM, no unit text.

Check the records and state IC50 for Cc1cc2c(=O)[nH]nc(CN)c2cc1-c1cncc(C#N)c1 [Example 3-38] 4.94
